All figures here come from patent US10479780B2.

The entries below come with measured pIC50 values attached.
- assayed-system: human Lck enzyme (Homo sapiens)
- Construct: purchased Carna Biosciences, Inc. 08-170
- Sequence (P06239 whole entry): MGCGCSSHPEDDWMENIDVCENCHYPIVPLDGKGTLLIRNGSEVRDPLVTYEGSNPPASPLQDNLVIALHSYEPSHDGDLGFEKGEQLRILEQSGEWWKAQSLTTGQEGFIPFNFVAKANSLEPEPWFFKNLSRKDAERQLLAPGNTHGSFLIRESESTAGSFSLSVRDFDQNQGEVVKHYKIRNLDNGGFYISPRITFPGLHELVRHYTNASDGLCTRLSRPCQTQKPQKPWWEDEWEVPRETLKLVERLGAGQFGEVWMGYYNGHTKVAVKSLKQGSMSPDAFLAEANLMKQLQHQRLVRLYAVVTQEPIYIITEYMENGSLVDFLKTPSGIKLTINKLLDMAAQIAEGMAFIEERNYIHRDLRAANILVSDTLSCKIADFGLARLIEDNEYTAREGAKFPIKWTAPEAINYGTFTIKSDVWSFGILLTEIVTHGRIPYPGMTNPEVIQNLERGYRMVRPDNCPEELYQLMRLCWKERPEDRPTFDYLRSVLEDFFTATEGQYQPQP
- protocol: Lck enzyme inhibitory activity (time-resolved fluorometry, biotinylated peptide phosphorylation)
- Assay type: biochemical
- assay-conditions: biotinylated peptide phosphorylation, read-out: LCK_IC50
- Protocol: 3. Lck Enzyme Inhibitory Activity Lck inhibitory activity was determined based on activity of inhibiting phosphorylation reaction of a biotinylated peptide (EGPWLEEEEEAYGWMDF) using a human Lck enzyme (manufactured by Carna Biosciences, Inc., cat 08-170). The phosphorylated biotinylated peptide was detected by time-resolved fluorometry using an anti-phosphorylated tyrosine antibody conjugated to europium cryptate, and streptavidin conjugated to XL665, an allophycocyanin derivative. […]
Scale note: pIC50 = -log10(concentration in M).

Look over these answered cases.
Cc1cc(Oc2ccccc2F)cc(F)c1-n1ncc(C(=O)c2cc3cc(F)c(NS(=O)(=O)C4CC4)cc3[nH]2)c1N ... 7.40
Cc1cc2cc(C(=O)c3cnn(-c4cnc(Oc5ccccc5F)cc4C)c3N)[nH]c2cc1NS(=O)(=O)c1cccc(Cl)n1 ... 6.85
Cc1cc(Oc2c(F)cccc2F)ncc1-n1ncc(C(=O)c2cc3cc(OC(F)F)c(NC4CCN(S(C)(=O)=O)CC4)cc3[nH]2)c1N ... 7.64
Cc1cc(Oc2c(F)cccc2F)ncc1-n1ncc(C(=O)c2cc3cc(F)c(N4C(=O)CNC4=O)cc3[nH]2)c1N ... 8.49

Please examine the following record next.
Fill in: human Lck enzyme (Homo sapiens) pIC50 for Cc1cc2cc(C(=O)c3cnn(-c4cnc(Oc5ccccc5F)cc4C)c3N)[nH]c2cc1NS(=O)(=O)c1cc(F)cc(F)c1 = 6.70

---

Overview of reported pIC50 across a group of compounds:
- assayed-system: human Lck enzyme (Homo sapiens)
- Construct: purchased Carna Biosciences, Inc. 08-170
- protocol: Lck enzyme inhibitory activity (time-resolved fluorometry, biotinylated peptide phosphorylation)
- Format: biochemical
- assay-conditions: read-out: LCK_IC50
pIC50 (log units): -log10 of the concentration in mol/L.

Cc1cc(Oc2c(F)cccc2F)ncc1-n1ncc(C(=O)c2cc3cc(OC4CCN(C5COC5)CC4)c(Br)cc3[nH]2)c1N ... 8.12
Cc1cc(Oc2c(F)cccc2F)ncc1-n1ncc(C(=O)c2cc3cc(OCC(F)F)c(N4C(=O)NC5(CCN(Cc6ccccc6)CC5)C4=O)cc3[nH]2)c1N ... 8.62
Cc1cc2cc(C(=O)c3cnn(-c4ccc(Oc5c(F)cccc5Cl)cc4C)c3N)[nH]c2cc1NS(C)(=O)=O ... 8.57

Just so you know, measured pIC50 for Cc1cc2cc(C(=O)c3cnn(-c4ccc(Oc5ccccc5F)cc4C)c3N)[nH]c2cc1C1CCN(S(C)(=O)=O)CC1 came out at 8.55

Sure, the documented pIC50 for Cc1cc2cc(C(=O)c3cnn(-c4ccc(Oc5ccccc5F)cc4C)c3N)[nH]c2cc1N1C(=O)NC2(CCNCC2)C1=O is 8.27

get_value(item= CC(C)N1CCC(c2cc3cc(C(=O)c4cnn(-c5ccc(Oc6cccc(Cl)c6)cc5F)c4N)[nH]c3cc2F)CC1 , readout=pIC50) returns 8.33

Given item Cc1cc2cc(C(=O)c3cnn(-c4c(C)cc(Oc5ccccc5F)cc4F)c3N)[nH]c2cc1NS(=O)(=O)CC(=O)N1CCCC1 , the value recorded as its pIC50 is 8.00

Notebook: Cc1cc(Oc2c(F)cccc2F)ncc1-n1ncc(C(=O)c2cc3cc(OC4CCN(C5CCCC5)CC4)c(Br)cc3[nH]2)c1N , pIC50 read as 8.14

Record summary for CS(=O)(=O)Nc1cc2[nH]c(C(=O)c3cnn(-c4c(F)cc(Oc5cccc(F)c5F)cc4F)c3N)cc2cc1F : reported pIC50 = 8.06

Entry Cc1cc(Oc2c(F)cccc2F)ncc1-n1ncc(C(=O)c2cc3cc(OC(F)F)c(NC4CN(S(C)(=O)=O)C4)cc3[nH]2)c1N , pIC50 reported as 8.42

Sample Cc1cc(-n2ncc(C(=O)c3cc4cc(OC5CCN(C(C)C)CC5)c(Br)cc4[nH]3)c2N)ccc1Oc1cccc(F)c1 ; pIC50 observed: 6.92

The compound listed as Cc1cc(Oc2c(F)cccc2F)ncc1-n1ncc(C(=O)c2cc3cc(OC4CCN(C(C)C)CC4)c(Br)cc3[nH]2)c1N shows pIC50 equal to 8.68

pIC50 for Cc1cc(-n2ncc(C(=O)c3cc4cc(OCC(F)F)c(Br)cc4[nH]3)c2N)ccc1Oc1ccccc1F is 6.49
